Data origin, for the record: patent US20230159445A1

Test system: glutathione (GSH)
experiment: Reactivity Profiling with Glutathione (GSH), half-life by HPLC
assaySetup: 5 mM glutathione (GSH) in IMDM with 10% FBS
Give measured half-life at 25 μM for each item. Keep answers brief.

# annotated cases, reported half-life at 25 μM shown
{"compound": "O=C(O)c1ccc(N(Cc2cc(C3CC3)cc(C3CC3)c2)C(=O)CN(Cc2ccc(F)cc2Cl)S(=O)(=O)c2c(F)c(F)c(F)c(F)c2F)c(OC2CCOCC2)c1", "target": "glutathione (GSH)", "half-life at 25 μM": "2.37 to 4.12 h"}
{"compound": "Cc1cc(C(=O)O)ccc1N(Cc1cc(C2CC2)cc(C2CC2)c1)C(=O)CN(Cc1ccc(F)cc1Cl)S(=O)(=O)c1c(F)c(F)c(F)c(F)c1F", "target": "glutathione (GSH)", "half-life at 25 μM": "2.37 to 4.12 h"}
{"compound": "CC(C)(C)c1cc(CN(C(=O)CN(Cc2ccc(F)cc2Cl)S(=O)(=O)c2c(F)c(F)c(F)c(F)c2F)c2ccc(C(=O)O)cc2O[C@H]2CCOC2)cc(C2CC2)c1", "target": "glutathione (GSH)", "half-life at 25 μM": "2.37 to 4.12 h"}

Hello, I would appreciate it if you could give half-life at 25 μM for each entry below.
1. Cc1cc(C(=O)O)ccc1N(Cc1cc(C2CC2)cc(C(C)(C)C)c1)C(=O)CN(Cc1ccccc1C(F)(F)F)S(=O)(=O)c1c(F)c(F)c(F)c(F)c1F
2. O=C(O)c1ccc(N(Cc2cccc(N3CCCC3)c2)C(=O)CN(Cc2cnccc2C(F)(F)F)S(=O)(=O)c2c(F)c(F)c(F)c(F)c2F)c(OC2CC2)c1
3. O=C(O)c1ccc(N(Cc2cc(C3CC3)cc(C3CC3)c2)C(=O)CN(Cc2ccc(F)cc2Cl)S(=O)(=O)c2c(F)c(F)c(F)c(F)c2F)c(OC2CCOC2)c1 (stereo not drawn)
4. O=C(O)c1ccc(N(Cc2cc(C3CC3)cc(N3CCCC3)c2)C(=O)CN(Cc2c(F)cc(F)cc2F)S(=O)(=O)c2c(F)c(F)c(F)c(F)c2F)c(C2CC2)c1
5. COc1cc(C(=O)O)ccc1N(Cc1cc(C2CC2)cc(C(C)(C)C)c1)C(=O)CN(Cc1c(F)cccc1F)S(=O)(=O)c1c(F)c(F)c(F)c(F)c1F

1. 9.23 to 1670 h
2. 0.00167 to 2.37 h
3. 2.37 to 4.12 h
4. 9.23 to 1670 h
5. 2.37 to 4.12 h

Hello, I would appreciate it if you could give half-life at 25 μM for each entry below.
1. COc1cc(C(=O)O)ccc1N(Cc1cc(C2CC2)cc(C(C)(C)C)c1)C(=O)CN(Cc1ccc(F)cc1F)S(=O)(=O)c1c(F)c(F)c(F)c(F)c1F
2. O=C(O)c1ccc(N(Cc2cc(C3CC3)cc(C3CC3)c2)C(=O)CN(Cc2c(F)c(F)c(F)c(F)c2F)S(=O)(=O)c2c(F)c(F)c(F)c(F)c2F)c(OC2CC2)c1
3. CC(C)(C)c1cc(CN(C(=O)CN(Cc2ncccc2C(F)(F)F)S(=O)(=O)c2c(F)c(F)c(F)c(F)c2F)c2ccc(C(=O)O)cc2OC2CC2)cc(C2CC2)c1
4. Cc1cc(C(=O)O)ccc1N(Cc1cc(C2CC2)cc(C(C)(C)C)c1)C(=O)CN(Cc1ccc(Cl)cc1)S(=O)(=O)c1c(F)c(F)c(F)c(F)c1F

1: 2.37 to 4.12 h; 2: 9.23 to 1670 h; 3: 4.12 to 9.23 h; 4: 4.12 to 9.23 h

Hello, I would appreciate it if you could give half-life at 25 μM for each entry below.
1. O=C(O)c1ccc(N(Cc2cc(C3CC3)cc(N3CCCC3)c2)C(=O)CN(Cc2cnccc2C(F)(F)F)S(=O)(=O)c2c(F)c(F)c(F)c(F)c2F)c(OC2CC2)c1
2. CCOc1cc(C(=O)O)ccc1N(Cc1cc(C2CC2)cc(C(C)(C)C)c1)C(=O)CN(Cc1ccc(F)cc1Cl)S(=O)(=O)c1c(F)c(F)c(F)c(F)c1F
3. CC(C)(C)c1cc(CN(C(=O)CN(Cc2ccc(Cl)cc2)S(=O)(=O)c2c(F)c(F)c(F)c(F)c2F)c2ccc(C(=O)O)cc2OC(F)(F)F)cc(C2CC2)c1
4. CC(C)(C)c1cc(CN(C(=O)CN(Cc2ccccc2F)S(=O)(=O)c2c(F)c(F)c(F)c(F)c2F)c2ccc(C(=O)O)cc2OC2CCCC2)cc(C2CC2)c1
5. O=C(O)c1ccc(N(Cc2cc(C3CC3)cc(C(F)(F)F)c2)C(=O)CN(Cc2ccc(F)cc2Cl)S(=O)(=O)c2c(F)c(F)c(F)c(F)c2F)c(OC2CC2)c1
6. CC(C)Oc1cc(CN(C(=O)CN(Cc2ccc(F)cc2Cl)S(=O)(=O)c2c(F)c(F)c(F)c(F)c2F)c2ccc(C(=O)O)cc2OC2CC2)cc(C2CC2)c1

["2.37 to 4.12 h", "4.12 to 9.23 h", "9.23 to 1670 h", "9.23 to 1670 h", "4.12 to 9.23 h", "4.12 to 9.23 h"]

###

System: glutathione (GSH)
experiment: Reactivity Profiling with Glutathione (GSH), half-life by HPLC
assaySetup: 5 mM glutathione (GSH) in IMDM with 10% FBS
quantityMeasured: half-life at 25 μM

# annotated cases, reported half-life at 25 μM shown
{"compound": "COc1cc(C(=O)N(C)S(C)(=O)=O)ccc1N(Cc1cc(C2CC2)cc(C(C)(C)C)c1)C(=O)CN(Cc1cnccc1C(F)(F)F)S(=O)(=O)c1c(F)c(F)c(F)c(F)c1F [Compound 1147]", "half-life at 25 μM": "9.23 to 1670 h"}
{"compound": "O=C(O)c1ccc(N(Cc2cc(C3CC3)cc(C3CC3)c2)C(=O)CN(Cc2cnccc2C(F)(F)F)S(=O)(=O)c2c(F)c(F)c(F)c(F)c2F)c(C2CC2)c1 [Compound 1194]", "half-life at 25 μM": "0.00167 to 2.37 h"}
{"compound": "O=C(O)c1ccc(N(Cc2cccc(-n3cccc3)c2)C(=O)CN(Cc2cnccc2C(F)(F)F)S(=O)(=O)c2c(F)c(F)c(F)c(F)c2F)c(OC2CC2)c1 [Compound 1161]", "half-life at 25 μM": "0.00167 to 2.37 h"}
{"compound": "COc1cc(C(=O)O)ccc1N(Cc1ccc2ccccc2c1)C(=O)CN(Cc1cnccc1C(F)(F)F)S(=O)(=O)c1c(F)c(F)c(F)c(F)c1F [Compound 1157]", "half-life at 25 μM": "0.00167 to 2.37 h"}

Proceed to the following item.
Which measured half-life at 25 μM belongs to CC(C)(C)c1cc(CN(C(=O)CN(Cc2c(F)cc(F)cc2F)S(=O)(=O)c2c(F)c(F)c(F)c(F)c2F)c2ccc(C(=O)O)cc2OC2CC2)cc(C2CC2)c1 [Compound 1122] , tested on glutathione (GSH)? 9.23 to 1670 h

###

System: glutathione (GSH)
experiment: Reactivity Profiling with Glutathione (GSH), half-life by HPLC
assaySetup: 5 mM glutathione (GSH) in IMDM with 10% FBS
Give measured half-life at 25 μM for each item. Keep answers brief.

{"molecule": "CC(C)(C)c1cc(CN(C(=O)CN(Cc2ccc(Cl)cc2)S(=O)(=O)c2c(F)c(F)c(F)c(F)c2F)c2ccc(C(N)=O)cc2)cc(C2CC2)c1 [Compound 1031]", "result": "554 to 100000 min"}
{"molecule": "CC(C)(C)c1cc(CN(C(=O)CN(Cc2ccccc2F)S(=O)(=O)c2c(F)c(F)c(F)c(F)c2F)c2ccc(C(=O)O)c(N)c2)cc(C2CC2)c1 [Compound 1070]", "result": "0.1 to 142 min"}
{"molecule": "COc1cc(C(=O)O)ccc1N(Cc1cc(C2CC2)cc(C(C)(C)C)c1)C(=O)CN(Cc1ccc(F)cc1Cl)S(=O)(=O)c1c(F)c(F)c(F)c(F)c1F [Compound 1143]", "result": "247 to 554 min"}
{"molecule": "COc1cc(C(=O)O)ccc1N(Cc1cc(C2CC2)cc(C(C)(C)C)c1)C(=O)CN(Cc1cc(C(F)(F)F)ccn1)S(=O)(=O)c1c(F)c(F)c(F)c(F)c1F [Compound 1134]", "result": "142 to 247 min"}
{"molecule": "CC(C)(C)c1cc(CN(C(=O)CN(Cc2ccccc2F)S(=O)(=O)c2c(F)c(F)c(F)c(F)c2F)c2ccc(C(=O)O)cc2N2CCC2)cc(C2CC2)c1 [Compound 1058]", "result": "554 to 100000 min"}

Hello, I would appreciate it if you could give half-life at 25 μM for each entry below.
1. O=C(O)c1ccc(N(Cc2cc(C3CC3)cc(C3CC3)c2)C(=O)CN(Cc2ccc(F)cc2Cl)S(=O)(=O)c2c(F)c(F)c(F)c(F)c2F)c(OC(F)(F)F)c1 [Compound 1231]
2. CC(C)(C)c1cc(CN(C(=O)CN(Cc2ccc(F)cc2Cl)S(=O)(=O)c2c(F)c(F)c(F)c(F)c2F)c2ccc(C(=O)O)cc2O[C@@H]2CCOC2)cc(C2CC2)c1 [Compound 1249]
3. CC(C)(C)c1cc(CN(C(=O)CN(Cc2ccccc2F)S(=O)(=O)c2c(F)c(F)c(F)c(F)c2F)c2ccc(C(=O)O)cc2F)cc(C2CC2)c1 [Compound 1065]
4. COc1cc(C(=O)O)ccc1N(Cc1cc(C2CC2)cc(C(C)(C)C)c1)C(=O)CN(Cc1c(F)c(F)c(F)c(F)c1F)S(=O)(=O)c1c(F)c(F)c(F)c(F)c1F [Compound 1066]
5. COc1cc(C(=O)O)ccc1N(Cc1cc(C2CC2)cc(C(C)(C)C)c1)C(=O)CN(C12CC(C1)C2)S(=O)(=O)c1c(F)c(F)c(F)c(F)c1F [Compound 1152]
6. O=C(O)c1ccc(N(Cc2cc(Br)cc(C3CC3)c2)C(=O)CN(Cc2ccc(Cl)cc2)S(=O)(=O)c2c(F)c(F)c(F)c(F)c2F)cc1O [Compound 1054]

1. 247 to 554 min
2. 142 to 247 min
3. 0.1 to 142 min
4. 247 to 554 min
5. 0.1 to 142 min
6. 0.1 to 142 min
